- Experimental System: SARS2 coronavirus 3CL protease (Severe acute respiratory syndrome coronavirus 2 (2019-nCoV) (SARS-CoV-2), UniProt P0DTD1)
Measured Quantity: pIC50
Remember the convention: pIC50 equals -log10 of concentration in molar.

| Molecule | pIC50 |
| --- | --- |
| COC(=O)N[C@H](C(=O)N1C[C@H]2CCCC[C@H]2C[C@H]1C(=O)N[C@@H](CCC(C)(F)F)C(=O)C(=O)NC1CC1)C(C)(C)C [Example 80] | 7.92 |
| CNC(=O)C(=O)[C@H](CCC(C)(F)F)NC(=O)C1C2CC(C)(C)C2CN1C(=O)[C@@H](NC(=O)OC)C(C)(C)C (single isomer, unassigned) [Example 95] | 8.30 |
| COC(=O)N[C@H](C(=O)N1CC2(CCCCC2)C[C@H]1C(=O)N[C@@H](CCC(C)(F)F)C(=O)C(=O)NC(C)(C)C)C(C)(C)C [Example 18] | 7.38 |
| COC(=O)N[C@H](C(=O)N1CC2(CCCCC2)C[C@H]1C(=O)N[C@@H](CCC(C)(F)F)C(=O)C(=O)Nc1ccccc1C)C(C)(C)C [Example 12] | 7.39 |
| CNC(=O)C(=O)[C@H](CCC(C)(F)F)NC(=O)[C@@H]1CC2(CCCCC2)CN1C(=O)[C@@H](NC(=O)OC)C(C)(C)C [Example 62] | 8.06 |
| CNC(=O)C(=O)[C@H](CCC(C)(F)F)NC(=O)[C@@H]1[C@H]2CCC[C@H]2CN1C(=O)[C@@H](NC(=O)OC)C12CC(C(F)(F)F)(C1)C2 [Example 114] | 7.57 |
| COC(=O)N[C@H](C(=O)N1CC2(CCOCC2)CC1C(=O)N[C@@H](CCC(C)(F)F)C(=O)C(=O)NC1CC1)C(C)(C)C (single isomer, unassigned) [Example 28] | 6.53 |
| COC(=O)N[C@H](C(=O)N1CC2CC2C[C@H]1C(=O)N[C@@H](CCC(C)(F)F)C(=O)C(=O)NC1CC1)C(C)(C)C (single isomer, unassigned) [Example 84] | 7.02 |
| COC(=O)N[C@H](C(=O)N1CCC(F)(F)CC1C(=O)N[C@@H](CCC(C)(F)F)C(=O)C(=O)NC1CC1)C(C)(C)C (single isomer, unassigned) [Example 45] | 7.47 |
| COC(=O)N[C@@H](Cc1noc(C)n1)C(=O)N1C[C@H]2[C@@H]([C@H]1C(=O)N[C@@H](CCC(C)(F)F)C(=O)C(=O)NC1CC1)C2(C)C [Example 123] | 7.54 |

Prompt: Give its pIC50 value. Item: CNC(=O)C(=O)[C@H](CCC(C)(F)F)NC(=O)[C@@H]1[C@H]2CCC[C@H]2CN1C(=O)[C@@H](NC(=O)OC)C(C)(C)O [Example 117]
Response: 7.85

Prompt: Can you check CNC(=O)C(=O)[C@H](CCC(C)(F)F)NC(=O)[C@@H]1[C@@H]2CC[C@@H](C2)CN1C(=O)[C@@H](NC(=O)OC)C(C)(C)C [Example 89] next?
Response: 7.89
